Cited source for all entries: paper PMC5540273

tested on: IRAK1; conditions: concentration: 1 μM,replicates: in singlicate; n = 1;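 also: KINOMEscan kinase panel screen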
Consider the following molecules; for each one, report its %Inh.
One number for each entry, in %.

Would you please look over these solved cases?
### Prompt Any idea what its %Inh is? The molecule is `O=C(Nc1ccc(Oc2ccc3nc(NC(=O)C4CC4)cn3n2)c(F)c1)c1cccn(-c2ccccc2)c1=O`
### Response 0

### Prompt Any idea what its %Inh is? The molecule is COc1cccc(CNC(=O)NC2CCN(c3ccnc(Nc4cc(OC)c(OC)c(OC)c4)n3)C2)c1 (stereo not drawn) [GSK1379765]
### Response 73

Please report %Inh for every entry that follows.
1. Cn1ccc2ncnc(Oc3ccc(NC(=O)Nc4cnn(C(C)(C)C)c4)c(Cl)c3)c21
2. Cl.c1ccc(Oc2ccc(Nc3ccnc4cc(-c5ccc(CN6CCNCC6)o5)ccc34)cc2)nc1 [GW567142]
3. O=C(Nc1n[nH]c2cc(-c3ccco3)ccc12)C1CC1 [SB-737447]
4. Nc1nccc(-c2ccc3c(N)n[nH]c3c2)n1 [GSK1034945]
5. Cn1ccc2ncnc(Oc3ccc(NC(=O)Nc4cc(C(C)(C)C)on4)c(Cl)c3)c21
6. CC(C)S(=O)(=O)N1CCN(Cc2ccc3c(c2)nc(NC(=O)c2ccsc2)n3C[C@H](O)c2ccccc2)CC1 [GW635815]
7. Cn1ccc2ncnc(Oc3ccc(NC(=O)Nc4cncc(C(F)(F)F)c4)c(Cl)c3)c21

### Response
1. 43
2. 0
3. 0
4. 45
5. 61
6. 90
7. 0

Please report %Inh for every entry that follows.
1. Cc1cccc2c(-c3ccncc3)c(-c3ccc(F)cc3)nn12.Cl [GW461487]
2. Cc1cccc(-c2nc(Nc3ccncc3)c3sccc3n2)n1 [GW869641]

### Response
1. 9
2. 18

Please report %Inh for every entry that follows.
1. Cc1ccc(Nc2ccnc(Nc3ccc4c(c3)CS(=O)(=O)C4)n2)cc1O.Cl [GW579362]
2. Cc1ccc(C(=O)Nc2ccc(Oc3ccc4nc(NC(=O)C5CC5)cn4c3)c(F)c2)c(=O)n1-c1ccccc1
3. Cc1ccc2c(-c3ccnc(Nc4ccc(C(F)(F)F)cc4)n3)cnn2n1 [GW819776]

### Response
1: 99.1; 2: 0; 3: 73

Please report %Inh for every entry that follows.
1. CCn1c(-c2nonc2N)nc2cncc(Br)c21 [SB-738004]
2. O=C(Nc1ccccc1)c1cccc(Oc2ccc3nccn3n2)c1
3. CC(C)c1nc(-c2cccc(NS(=O)(=O)c3ccccc3)c2)c(-c2ccnc(Nc3ccc4c(c3)CN(C)CC4)n2)s1 [GSK1649598]
4. CCCC(=O)Nc1n[nH]c2ncccc12 [SB-601436]

### Response
1: 63; 2: 25; 3: 65; 4: 0
